Data credit: paper PMC5817008

Test system: Francisella tularensis subsp. novicida Utah 112
EXPERIMENTAL PROTOCOL: microbe, parasite or virus in culture
Format: cell-based
CONDITION DESCRIPTION: read-out: EC50, growth inhibition
OBSERVABLE: EC50
For clarity, give the value followed by its unit.

**Q:** Return reported EC50. Input compound: O=c1c(O)c(-c2ccc(O)c(O)c2)oc2cc(O)cc(O)c12
**A:** 36 µM
